Provenance of the data: patent US8236935B2

# System: KB cells
# test: cytotoxicity test, inhibition of cellular growth, KB cells
# Type: cell-based
# condition.parameters: Homo sapiens, 10^−5M, triplicate, read-out: inhibition percentage of cellular growth
recorded.endpoint: inhibition at 10 µM (%)
Use % as the unit, but write only the number.

Take a look at these entries with their results.
Find the measured inhibition at 10 µM of COc1cc([C@@H]2c3cc4c(cc3[C@@H](N(C)C(=O)C(F)(F)[C@]3(O)O[C@H](COCc5ccccc5)[C@@H](OCc5ccccc5)[C@H](OCc5ccccc5)[C@H]3OCc3ccccc3)C3COC(=O)[C@@H]32)OCO4)cc(OC)c1OC (stereo partly shown) [compound 31a] with KB cells as test system.
22

Find the measured inhibition at 10 µM of COc1cc([C@@H]2c3cc4c(cc3[C@@H](NC(=O)C(F)(F)[C@@H]3O[C@H](CO)[C@@H](O)[C@H](O)[C@H]3O)C3COC(=O)[C@@H]32)OCO4)cc(OC)c1OC (stereo partly shown) [compound 44a] with KB cells as test system.
90

Find the measured inhibition at 10 µM of COc1cc([C@@H]2c3cc4c(cc3[C@@H](NC(=O)C(F)(F)C3(Cl)O[C@H](CO)[C@@H](O)[C@H](O)[C@H]3O)C3COC(=O)[C@@H]32)OCO4)cc(OC)c1OC (stereo partly shown) [compound 37a] with KB cells as test system.
91

Next, consider the following compound.
Find the measured inhibition at 10 µM of COc1cc([C@@H]2c3cc4c(cc3[C@H](O)[C@H]3COC(=O)[C@H]23)OCO4)cc(OC)c1OC with KB cells as test system.
90
